Listing: pIC50 of selected compounds
Test system: HACAT keratinocytes
Assay: Inhibition of TGFa- or EGF-specific proliferation of HACAT keratinocytes (3H-thymidine incorporation)
Assay type: cell-based
Conditions: Homo sapiens, HaCaT, test 1: HaCaT cells stimulated with recombinant human TGFa or EGF, two days
pIC50: −log10 of the molar value.

>  <CHEM SMILES>
O=c1c(-c2ccc(O)cc2)coc2cc(O)cc(O)c12

>  <pIC50>
4.30 to 5.30

$$$$
>  <CHEM SMILES>
COC(=O)c1cc(OCc2cc(OC)ccc2OC)ccc1O

>  <pIC50>
> 6.00

$$$$
